Data origin, for the record: ChEMBL document CHEMBL5725377

Target: Bromodomain-containing protein 4 (Homo sapiens, UniProt O60885)
Test: FP Competitive Binding Assay (No.350): Fluorescence Polarization (FP) competitive binding studies (see above) were carried out using the FAM labeled fluorescent probe Cpd. No. 350 to determine binding affinities of representative compounds to both BD1 and BD2 of BRD2, BRD3, and BRD4 proteins. Equilibrium dissociation constants (Id) values of Cpd. […] Final Cpd. […] Kd values of Cpd.
Form field: Ki (one value per entry).
measurement_kind: Ki (nM)

{"molecule": "COc1cc2c(cc1-c1c(C)noc1C)[nH]c1nc(C)nc(-c3ccc(NC(=O)N4CCN(C)CC4)c4ccccc34)c12", "measurement_kind": "Ki", "measured_result": 11}
{"molecule": "COc1cc2c(cc1-c1c(C)noc1C)[nH]c1nc(C)nc(-c3ccc(NC(=O)N4CCN(C5COC5)CC4)c4ccccc34)c12", "measurement_kind": "Ki", "measured_result": 39}
{"molecule": "COc1cc2c(cc1-c1c(C)noc1C)[nH]c1nc(C)nc(-c3cc(C(=O)NC4CCN(C)CC4)cc(C(C)(C)C)c3)c12", "measurement_kind": "Ki", "measured_result": 9}
